# System: L1210 leukemia ip in BDF1 mice, survival T/C
# Test Summary: NCI In Vivo Anticancer Drug Screen. Data for tumor model L1210 Leukemia (intraperitoneal) in B6D2F1 (BDF1) mice
# Measurement Context: endpoint: mean survival time; dose: 50.0 mg/kg/injection; schedule: Q01DX009 (ip); vehicle: saline; higher = longer survival
Toxic doses and inconclusive results are not listed.
# T/C listing for each entry below

# example entries with known answers
Molecule | Target Or Test System | Assay Metric | Recorded Result
O=c1[nH]c2ncccc2c(=O)n1OS(=O)(=O)c1ccccc1 | L1210 leukemia ip in BDF1 mice, survival T/C | T/C | 98 % of control
COc1cc(N2CCOCC2)ccc1[N+](=O)[O-] | L1210 leukemia ip in BDF1 mice, survival T/C | T/C | 105 % of control
CN(C)C1CCc2ccc3ccccc3c2C1=O (configuration not stated) | L1210 leukemia ip in BDF1 mice, survival T/C | T/C | 88 % of control

Turning now to a further molecule:
Challenge: # query: T/C of entry CC(CCc1ccccc1)NC(C)C(O)c1ccc(O)cc1 (configuration not stated)
Response given: 97 % of control
